test-description: toxicity (LD50) on intraperitoneal injection in mice
experimental-parameters: mouse, in vivo, ip
measured-attribute: LD50

Given the compound "C=C[C@]1(C)C[C@@H](OC(=O)CS[C@@H]2OC[C@@H](O)[C@H](O)[C@H]2O)[C@]2(C)[C@H](C)CC[C@]3(CCC(=O)[C@H]32)[C@@H](C)[C@@H]1O" , what is its reported LD50?
> 1500 mg/kg

###

Let's go through some MIC measurements on Pasteurella multocida (turkey) together.
State the answer as a number, implicitly in µg/mL.

Known MIC results, listed for orientation:
C=C[C@]1(C)C[C@@H](OC(=O)CS[C@@H]2OC[C@@H](OC(C)=O)[C@H](OC(C)=O)[C@H]2OC(C)=O)[C@]2(C)[C@H](C)CC[C@]3(CCC(=O)[C@H]32)[C@@H](C)[C@@H]1O ... 50
CC[C@]1(C)C[C@@H](OC(=O)CS[C@@H]2OC[C@@H](O)[C@H](O)[C@H]2O)[C@]2(C)[C@H](C)CC[C@]3(CCC(=O)[C@H]32)[C@@H](C)[C@@H]1O ... 6.25

API: the following record is the query input.
Write down the reported MIC of "C=C[C@]1(C)C[C@@H](OC(=O)CS[C@@H]2OC[C@@H](O)[C@H](O)[C@H]2O)[C@]2(C)[C@H](C)CC[C@]3(CCC(=O)[C@H]32)[C@@H](C)[C@@H]1O" , test system: Pasteurella multocida (turkey).
6.25

###

MIC overview
System: Bacteroides fragilis 1936B
test-description: standard agar-dilution test, anaerobic bacteria
Assay type: cell-based
experimental-parameters: Bacteroides fragilis 1936B; 24-hour incubation; read-out: MIC
State the answer as a number, implicitly in µg/mL.

C=C[C@]1(C)C[C@@H](OC(=O)CS[C@@H]2O[C@H](COC(C)=O)[C@@H](OC(C)=O)[C@H](OC(C)=O)[C@H]2OC(C)=O)[C@]2(C)[C@H](C)CC[C@]3(CCC(=O)[C@H]32)[C@@H](C)[C@@H]1O ... 32
CC[C@]1(C)C[C@@H](OC(=O)CS[C@@H]2OC[C@@H](O)[C@H](O)[C@H]2O)[C@]2(C)[C@H](C)CC[C@]3(CCC(=O)[C@H]32)[C@@H](C)[C@@H]1O ... 1
C=C[C@]1(C)C[C@@H](OC(=O)CS[C@@H]2OC[C@@H](OC(C)=O)[C@H](OC(C)=O)[C@H]2OC(C)=O)[C@]2(C)[C@H](C)CC[C@]3(CCC(=O)[C@H]32)[C@@H](C)[C@@H]1O ... 8
C=C[C@]1(C)C[C@@H](OC(=O)CS[C@@H]2O[C@H](CO)[C@@H](O)[C@H](O)[C@H]2O)[C@]2(C)[C@H](C)CC[C@]3(CCC(=O)[C@H]32)[C@@H](C)[C@@H]1O ... 64

API: the following record is the query input.
Write down the reported MIC of "CC[C@]1(C)C[C@@H](OC(=O)CS[C@@H]2OC[C@@H](OC(C)=O)[C@H](OC(C)=O)[C@H]2OC(C)=O)[C@]2(C)[C@H](C)CC[C@]3(CCC(=O)[C@H]32)[C@@H](C)[C@@H]1O" , test system: Bacteroides fragilis 1936B.
8

###

MIC overview
Test system: Fusobacterium symbiosum
test-description: standard agar-dilution test, anaerobic bacteria
Assay type: cell-based
experimental-parameters: Fusobacterium, 24 h
State the answer as a number, implicitly in µg/mL.

CC[C@]1(C)C[C@@H](OC(=O)CS[C@@H]2O[C@H](COC(C)=O)[C@@H](OC(C)=O)[C@H](OC(C)=O)[C@H]2OC(C)=O)[C@]2(C)[C@H](C)CC[C@]3(CCC(=O)[C@H]32)[C@@H](C)[C@@H]1O ... 128

API: the following record is the query input.
Given the molecule "C=C[C@]1(C)C[C@@H](OC(=O)CS[C@@H]2O[C@H](COC(C)=O)[C@@H](OC(C)=O)[C@H](OC(C)=O)[C@H]2OC(C)=O)[C@]2(C)[C@H](C)CC[C@]3(CCC(=O)[C@H]32)[C@@H](C)[C@@H]1O" , what is its reported MIC?
128
